# tested-system: T1, human angiotensin 2 type 1 receptor (human, UniProt P30556 1-359)
# T1 sequence (looked up): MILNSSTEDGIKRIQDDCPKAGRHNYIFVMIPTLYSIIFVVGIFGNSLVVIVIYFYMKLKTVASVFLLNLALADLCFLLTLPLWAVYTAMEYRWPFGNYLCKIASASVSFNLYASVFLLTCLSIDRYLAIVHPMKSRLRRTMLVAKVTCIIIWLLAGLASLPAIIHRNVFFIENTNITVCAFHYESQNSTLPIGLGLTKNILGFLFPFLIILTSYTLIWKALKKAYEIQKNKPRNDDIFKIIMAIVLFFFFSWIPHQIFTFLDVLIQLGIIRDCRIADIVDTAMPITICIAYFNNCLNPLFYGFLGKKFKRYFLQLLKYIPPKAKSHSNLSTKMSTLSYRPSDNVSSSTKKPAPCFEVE
# method-summary: cell-based or functional assay
Where no end group is shown, it is not given here. [ ]: non-standard residue; d: D form. Ac6c = NC1(C(=O)O)CCCCC1; Sar = CNCC(=O)O
Listed below: beta-arrestin2 assay EC50 values for each entry.
attribute-measured: beta-arrestin2 assay EC50

- binder: "[Sar]RVY[Ac6c]HP-NHMe [SEQ ID NO: 49 (Sar-Arg-Val-Tyr-cyHex-His-Pro-NH-methyl)]"
  attribute-measured: "beta-arrestin2 assay EC50"
  recorded-result: "> 3.2 nM"
- binder: "[Sar]RVYPHPV [SEQ ID NO: 6 (Sar-Arg-Val-Tyr-Pro-His-Pro-Val)]"
  attribute-measured: "beta-arrestin2 assay EC50"
  recorded-result: "> 3.2 nM"
- binder: "[Sar]RVY[Ac6c]HPG [SEQ ID NO: 32 (Sar-Arg-Val-Tyr-cyHex-His-Pro-Gly)]"
  attribute-measured: "beta-arrestin2 assay EC50"
  recorded-result: "> 3.2 nM"
